Entry source: the PolyMetriX glass transition set

compounds and their reported glass transition temperature
TEST_READOUT: glass transition temperature (°C)

COMPOUND	UNITS_OF_MEASURE	NUMERIC_RESULT
*C1C(=O)N(c2cc(Br)c(O[Si](C)(C)C)c(Br)c2)C(=O)C1* (repeat unit)	°C	167.00
*OCCOC(=O)c1ccc(C(=O)OCCOc2nc(-c3ccc(OCCCC)cc3)nc(*)c2-c2ccc(OC)cc2)cc1 (repeat unit)	°C	94.00
*c1ccc(Oc2ccc(C(=O)c3ccc(-c4ccc(C(=O)c5ccc(Oc6ccc(-c7nc(-c8cccc(-c9nc(*)c(-c%10ccccc%10)[nH]9)c8)[nH]c7-c7ccccc7)cc6)cc5)cc4)cc3)cc2)cc1 (repeat unit)	°C	276.00
*Oc1cc(C(C)(C)c2ccccc2)c(OC(=O)c2ccc(C(*)=O)cc2)cc1C(C)(C)c1ccccc1 (repeat unit)	°C	170.00
*CCc1ccc(CCNC(=O)CCCCCCCCC(=O)N*)cc1 (repeat unit)	°C	105.00
*CCN(*)Cc1ccccc1 (repeat unit)	°C	-16.00
*CCCOC(=O)NNC(=O)CCCCCCCCC(=O)NNC(=O)O* (repeat unit)	°C	22.00
*c1ccc(C(C#N)(C(=O)OCCCC)C(*)(C#N)C(=O)OCCCC)cc1 (repeat unit)	°C	108.00
*CC(*)c1ccccc1C (repeat unit)	°C	131.00
*CC(C[Si](*)(C)C)c1ccccc1 (repeat unit)	°C	-5.00

====

compounds and their reported glass transition temperature
TEST_READOUT: glass transition temperature (°C)

COMPOUND	UNITS_OF_MEASURE	NUMERIC_RESULT
*/C=C/C1CCC(*)C1 (repeat unit)	°C	31.00
*/C=C/C1CC(*)C(C(=O)Oc2ccccc2)C1 (repeat unit)	°C	72.60
*Sc1ccc(Sc2ccc(Sc3cccc4c3C(=O)N(N3C(=O)c5cccc(*)c5C3=O)C4=O)cc2)cc1 (repeat unit)	°C	266.00
*CCC(C)Oc1ccc(-c2ccc(C(=O)OCC(C)COC(=O)c3ccc(-c4ccc(O*)cc4)cc3)cc2)cc1 (repeat unit)	°C	84.00
*CCCOC(=O)OCCCCCCOC(=O)OCCCn1c(=O)c2cc3c(=O)n(*)c(=O)c3cc2c1=O (repeat unit)	°C	36.00
*CC(*)(C)C(=O)OCc1ccc2c(c1)c1ccccc1n2CC (repeat unit)	°C	136.00
*C(=O)Nc1ccc(Oc2ccc(C(C)(C)c3ccc(Oc4ccc(NC(=O)c5ccc6c(c5)C(=O)N(c5ccc(-c7sc(-c8ccc(N9C(=O)c%10ccc(*)cc%10C9=O)cc8)c(-c8ccccc8)c7-c7ccccc7)cc5)C6=O)cc4)cc3)cc2)cc1 (repeat unit)	°C	287.00
*CCCC(C)(C)CCCNC(=O)c1ccc(C(=O)N*)cc1 (repeat unit)	°C	152.00
*CCCCCCOC(=O)NCC(F)(F)C(F)(F)C(F)(F)C(F)(F)CNC(=O)O* (repeat unit)	°C	5.00
*C(=O)Nc1ccc(/N=N/c2ccc([N+](=O)[O-])cc2)c(NC(=O)c2ccc3c(c2)C(=O)N(c2c(C)cc(-c4cc(C)c(N5C(=O)c6ccc(*)cc6C5=O)c(C)c4)cc2C)C3=O)c1 (repeat unit)	°C	278.00
*c1cccc(P(=O)(c2cccc(-n3c(=O)c4c(-c5ccc(C(F)(F)F)cc5)c5c(=O)n(*)c(=O)c5c(-c5ccc(C(F)(F)F)cc5)c4c3=O)c2)c2cc(C(F)(F)F)cc(C(F)(F)F)c2)c1 (repeat unit)	°C	310.00
